Target: T1, human CD228 (R&D Systems Custom02; Lot DCWR021505A) (human, UniProt P08582 20-709, limits assumed)
T1 construct: Bought custom protein coated on ELISA plates; also called CD228 protein; melanotransferrin
T1 sequence (looked up): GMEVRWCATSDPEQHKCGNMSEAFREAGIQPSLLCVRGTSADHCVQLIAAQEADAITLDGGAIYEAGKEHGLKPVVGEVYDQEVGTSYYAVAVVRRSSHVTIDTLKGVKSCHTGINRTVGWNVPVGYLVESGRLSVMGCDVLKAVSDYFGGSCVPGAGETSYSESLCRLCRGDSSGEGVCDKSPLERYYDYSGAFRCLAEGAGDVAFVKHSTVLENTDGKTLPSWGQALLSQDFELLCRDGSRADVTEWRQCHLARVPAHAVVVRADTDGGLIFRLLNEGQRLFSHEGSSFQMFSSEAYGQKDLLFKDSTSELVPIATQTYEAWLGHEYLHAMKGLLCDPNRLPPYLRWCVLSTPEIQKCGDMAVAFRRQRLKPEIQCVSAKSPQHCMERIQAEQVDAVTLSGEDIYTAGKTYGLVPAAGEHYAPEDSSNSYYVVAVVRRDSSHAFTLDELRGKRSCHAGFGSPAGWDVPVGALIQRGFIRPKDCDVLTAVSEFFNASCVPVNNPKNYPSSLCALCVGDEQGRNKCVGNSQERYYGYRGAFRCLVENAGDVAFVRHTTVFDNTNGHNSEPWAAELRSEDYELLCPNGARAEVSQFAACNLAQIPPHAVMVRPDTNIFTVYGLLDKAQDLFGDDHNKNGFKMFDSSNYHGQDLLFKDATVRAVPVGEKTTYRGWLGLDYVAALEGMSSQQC
Test: ELISA, coated human CD228, pH 4.55
Provide the reported pEC50 of each item.
FYI, pEC50 means -log10 of a concentration in mol per litre.

// pEC50 value for hL49_27D_Gln (antibody, V domains shown, hL49 variant with the light chain CDR-L1 histidine 27D changed to glutamine) VH: QVQLQESGPGLVKPSETLSLTCTVSGDSITSGYWNWIRQPPGKGLEYIGYISDSGITYYNPSLKSRVTISRDTSKNQYSLKLSSVTAADTAVYYCARRTLATYYAMDYWGQGTLVTVSS VL: DFVMTQSPLSLPVTLGQPASISCRASQSLVQSDGNTYLHWYQQRPGQSPRLLIYRVSNRFSGVPDRFSGSGSGTDFTLKISRVEAEDVGVYYCSQSTHVPPTFGQGTKLEIK : 6.44

// pEC50 value for hL49_27D_Ala (antibody, V domains shown, hL49 variant with the light chain CDR-L1 histidine 27D changed to alanine) VH: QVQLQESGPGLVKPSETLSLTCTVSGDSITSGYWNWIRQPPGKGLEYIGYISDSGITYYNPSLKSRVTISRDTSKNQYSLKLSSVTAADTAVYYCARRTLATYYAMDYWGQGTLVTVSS VL: DFVMTQSPLSLPVTLGQPASISCRASQSLVASDGNTYLHWYQQRPGQSPRLLIYRVSNRFSGVPDRFSGSGSGTDFTLKISRVEAEDVGVYYCSQSTHVPPTFGQGTKLEIK : 6.34

// pEC50 value for hL49_3X_Ala (antibody, V domains shown, hL49 triple mutant: all three light chain CDR histidines (two in CDR-L1, one in CDR-L3) changed to alanine) VH: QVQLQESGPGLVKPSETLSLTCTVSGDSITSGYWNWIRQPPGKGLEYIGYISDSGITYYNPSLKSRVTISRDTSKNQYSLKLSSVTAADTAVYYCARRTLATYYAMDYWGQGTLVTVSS VL: DFVMTQSPLSLPVTLGQPASISCRASQSLVASDGNTYLAWYQQRPGQSPRLLIYRVSNRFSGVPDRFSGSGSGTDFTLKISRVEAEDVGVYYCSQSTAVPPTFGQGTKLEIK : 6.97

// pEC50 value for hL49_27D_Tyr (antibody, V domains shown, hL49 variant with the light chain CDR-L1 histidine 27D changed to tyrosine) VH: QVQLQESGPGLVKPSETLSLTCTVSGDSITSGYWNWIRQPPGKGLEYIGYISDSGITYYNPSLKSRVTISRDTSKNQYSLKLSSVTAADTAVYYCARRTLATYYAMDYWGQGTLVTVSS VL: DFVMTQSPLSLPVTLGQPASISCRASQSLVYSDGNTYLHWYQQRPGQSPRLLIYRVSNRFSGVPDRFSGSGSGTDFTLKISRVEAEDVGVYYCSQSTHVPPTFGQGTKLEIK : 6.47
